method: Pharmacokinetics after a single oral administration in male monkeys
Set-up: species or system monkey
conditions used: in vivo; male monkey, single oral, nominal dose 1 mg/kg, mean ± SD (n = 3)
Protocol: Following a single oral administration of Compound I in male animals, Compound I mean tmax values were 9 hours in rats, 4 hours in dogs, and 3 hours in monkeys. Compound I Pharmacokinetic Parameters Following a Single Oral Administration of Compound I in Male Rats, Dogs, and Monkeys

compound: CC1(C)C[C@@H]2CCCNc3cccc(n3)S(=O)(=O)NC(=O)c3ccc(-n4ccc(OCCC5C6(CC6)C56CC6)n4)nc3N1C2 [Compound I]
Cmax (ng/mL): 102

---

method: Pharmacokinetics after a single oral administration in male monkeys
Parameters: species or system monkey
conditions used: in vivo; male monkey, single oral, nominal dose 1 mg/kg, mean ± SD (n = 3)

chem smiles: CC1(C)C[C@@H]2CCCNc3cccc(n3)S(=O)(=O)NC(=O)c3ccc(-n4ccc(OCCC5C6(CC6)C56CC6)n4)nc3N1C2
AUC(0-inf) (ng·h/mL): 795
